Kindly find below IC50 information for Cyclin-dependent kinase 2 (Homo sapiens) taken from the literature.
measured-property: IC50 (nM)

molecule	IC50 (nM)
CN1CCN(CCCNC(=O)Cc2cccc(Nc3nc(OCC4CCCCC4)c4nc[nH]c4n3)c2)CC1	2400
CC(C)(C)OC(=O)N1CCC(NC(=O)c2n[nH]cc2Nc2ncnc3[nH]ccc23)CC1	32.8
CN(C)S(=O)(=O)c1cccc(Nc2nc(OCC3CCCCC3)c3nc[nH]c3n2)c1	3500
O=C(NN=C1CCCc2ccccc21)c1oc2ccccc2c1CN1CCN(c2ccccc2)CC1	65.6
O=C(NNC(=S)Nc1ccc(Cl)cc1)c1oc2ccccc2c1CN1CCN(c2ccccc2)CC1	69.8
CCC(C)Oc1nc(Nc2cccc(CC(=O)NCCCN(C)C)c2)nc2[nH]cnc12 (racemic)	410

I: O=C(CSc1nc2ccccc2o1)NN=Cc1ccc[nH]1 (mixture of isomers)
II: O=C(Nc1ccc(N2CCNCC2)cn1)c1n[nH]cc1Nc1ncnc2sccc12
III: CN1CCCN(c2cccc(NC(=O)c3n[nH]cc3Nc3ncnc4sccc34)c2)CC1
Output the entries ranked by IC50 from maximum down to minimum. Put the labels in the requested order and list them out.
I, II, III
